# PROTOCOL NOTES: Cytotoxicity against human SH-SY5Y cells assessed as cell survival at 1000 uM after 24 hrs by MTT assay relative to control
# Format: cell-based
# CONDITION: read-out: Survival
Criterion: viability at 24 h, 1000 µM strictly less than 30%. Met: 1 (yes). Not met: 0 (no).

| COMPOUND | LABEL CLASS |
| --- | --- |
| Oc1ccc(/C=C/c2ccc3c(c2)OCCO3)cc1 | 1 (yes) |

Qu. Does `O=C(Nc1ccc(/C=C/c2ccc3c(c2)OCO3)cc1)c1cccs1` have viability at 24 h, 1000 µM strictly under 30%?
Ans. 0 (no)

Qu. Does `Nc1ccc(/C=C/c2cccc(OC(F)(F)F)c2)cc1` have viability at 24 h, 1000 µM strictly under 30%?
Ans. 1 (yes)

Qu. Does `Oc1ccc(/C=C/c2ccc3c(c2)OCO3)cc1` have viability at 24 h, 1000 µM strictly under 30%?
Ans. 1 (yes)

Qu. Does `CC(=O)Nc1ccc(/C=C/C(=O)c2ccc3c(c2)OCO3)cc1` have viability at 24 h, 1000 µM strictly under 30%?
Ans. 1 (yes)

Qu. Does `N#Cc1cccc(/C=C/c2ccc(O)cc2)c1` have viability at 24 h, 1000 µM strictly under 30%?
Ans. 1 (yes)

Qu. Does `Cc1ccc(C#Cc2ccc3c(c2)OCO3)cc1` have viability at 24 h, 1000 µM strictly under 30%?
Ans. 1 (yes)

Qu. Does COc1ccc2c(c1)OC(c1ccc3c(c1)OCO3)CC2=O (stereo not given) have viability at 24 h, 1000 µM strictly under 30%?
Ans. 1 (yes)

Qu. Does `CN(C)c1ccc(/C=C/C(=O)c2ccc3c(c2)OCO3)cc1` have viability at 24 h, 1000 µM strictly under 30%?
Ans. 1 (yes)

Qu. Does `COc1ccc(/C=C/c2ccc(NC(C)=O)cc2)cc1OC` have viability at 24 h, 1000 µM strictly under 30%?
Ans. 0 (no)

Qu. Does `O=C(Nc1ccc(/C=C/c2ccc3c(c2)OCO3)cc1)C(F)(F)F` have viability at 24 h, 1000 µM strictly under 30%?
Ans. 0 (no)

====

The molecules listed here are annotated with their viability at 24 h, 500 µM.
# PROTOCOL NOTES: Cytotoxicity against human SH-SY5Y cells assessed as cell survival at 500 uM after 24 hrs by MTT assay relative to control
# Format: cell-based
# CONDITION: read-out: Survival
Kindly provide the numeric value in % only, without the unit symbol.

Observe how each entry below is paired with its result.
| SMILES REPRESENTATION | QUANTITY UNIT | DATA VALUE |
| --- | --- | --- |
| Cc1cc(C)cc(/C=C/c2ccc(O)cc2)c1 | % | 1.84 |
| O=C(Nc1ccc(/C=C/c2ccc3c(c2)OCO3)cc1)c1cccs1 | % | 54.4 |
| COc1cccc(/C=C/c2ccc(NC(C)=O)cc2)c1 | % | 26.1 |
| Oc1ccc(/C=C/c2ccc3c(c2)OCO3)cc1 | % | 20.1 |
| CC(=O)c1ccc(/C=C/c2ccc3c(c2)OCO3)cc1 | % | 63.5 |
| O=C(Nc1ccc(/C=C/c2ccc3c(c2)OCO3)cc1)C(F)(F)F | % | 53.4 |
| CC(=O)Nc1ccc(CCc2ccc3c(c2)OCO3)cc1 | % | 79.4 |
| CCCCCOc1ccc(C#Cc2ccc3c(c2)OCO3)cc1 | % | 22.9 |
| COc1ccc(/C=C/c2ccc(NC(C)=O)c(F)c2)cc1 | % | 1.52 |
| COc1cc(/C=C/c2ccc(OC(C)=O)cc2)cc(OC)c1 | % | 13.9 |

Qu. For `CC(=O)N(C)c1ccc(/C=C/c2ccc3c(c2)OCO3)cc1` , what is its reported viability at 24 h, 500 µM?
Ans. 15.8

Qu. For `COc1cc(/C=C/c2ccc3c(c2)OCO3)cc(OC)c1` , what is its reported viability at 24 h, 500 µM?
Ans. 60.9

Qu. For `COc1ccc(/C=C/c2cccc(OC(F)(F)F)c2)cc1` , what is its reported viability at 24 h, 500 µM?
Ans. 40.5

Qu. For `CC(=O)Oc1ccc(/C=C/c2ccc3c(c2)OCO3)cc1` , what is its reported viability at 24 h, 500 µM?
Ans. 21.3

Qu. For `Oc1ccc(/C=C/c2cc(C(F)(F)F)cc(C(F)(F)F)c2)cc1` , what is its reported viability at 24 h, 500 µM?
Ans. -0.07

Qu. For `COc1ccc(/C=C/c2ccc(NC(C)=O)cc2)cc1` , what is its reported viability at 24 h, 500 µM?
Ans. 52.2

Qu. For `COc1cc(/C=C/c2ccc(NC(C)=O)cc2)cc(OC)c1` , what is its reported viability at 24 h, 500 µM?
Ans. 48.5

Qu. For `COc1cc(/C=C/C(=O)c2ccc3c(c2)OCO3)ccc1O` , what is its reported viability at 24 h, 500 µM?
Ans. 25.2

Qu. For `Cc1ccc(C#Cc2ccc(OCc3ccccc3)cc2)cc1` , what is its reported viability at 24 h, 500 µM?
Ans. 72.5

Qu. For `COc1ccc(/C=C/c2cccc(C#N)c2)cc1` , what is its reported viability at 24 h, 500 µM?
Ans. 67

====

# PROTOCOL NOTES: Cytotoxicity against human SH-SY5Y cells assessed as cell survival at 1000 uM after 24 hrs by MTT assay relative to control
# Type: cell-based
# CONDITION: read-out: Survival
The compounds listed here are annotated with their viability at 24 h, 1000 µM.
Kindly provide the numeric value in % only, without the unit symbol.

Observe how each entry below is paired with its result.
| SMILES REPRESENTATION | DATA VALUE |
| --- | --- |
| CCOc1ccc(C#Cc2ccc3c(c2)OCO3)cc1 | 38.1 |
| Oc1ccc(/C=C/c2cc(F)cc(F)c2)cc1 | -7.78 |
| Oc1ccc(/C=C/c2ccc(Cl)cc2)cc1O | 38.5 |
| COc1ccc(/C=C/C(=O)c2ccc3c(c2)OCO3)cc1O | 17.1 |
| COc1ccc(C#Cc2ccc(OC)c(OC)c2)cc1 | 65.5 |

Qu. For `COc1cc(/C=C/C(=O)c2ccc(O)cc2)cc(OC)c1` , what is its reported viability at 24 h, 1000 µM?
Ans. 2.57

Qu. For `COc1ccc(C#Cc2cc(C(F)(F)F)cc(C(F)(F)F)c2)cc1` , what is its reported viability at 24 h, 1000 µM?
Ans. 18.3

Qu. For `Cc1cc(C)cc(/C=C/c2ccc(O)cc2)c1` , what is its reported viability at 24 h, 1000 µM?
Ans. 2.88

Qu. For `COc1cc(/C=C/c2ccc3c(c2)OCO3)cc(OC)c1` , what is its reported viability at 24 h, 1000 µM?
Ans. 45.7

====

# PROTOCOL NOTES: Cytotoxicity against human SH-SY5Y cells assessed as cell survival at 100 uM after 24 hrs by MTT assay relative to control
# Assay type: cell-based
# CONDITION: read-out: Survival
The molecules listed here are annotated with their viability at 24 h, 100 µM.
Kindly provide the numeric value in % only, without the unit symbol.

Observe how each entry below is paired with its result.
| MOLECULE | viability at 24 h, 100 µM / % |
| --- | --- |
| CC(=O)Nc1ccc(/C=C/C(=O)c2ccc3c(c2)OCO3)cc1 | 6.71 |
| COc1cc(/C=C/C(=O)c2ccc(O)cc2)cc(OC)c1 | 5.64 |
| CCOc1ccc(C#Cc2ccc3c(c2)OCO3)cc1 | 56.5 |
| O=C(Nc1ccc(/C=C/c2ccc3c(c2)OCO3)cc1)c1ccccc1 | 98.6 |
| COc1ccc2c(c1)OC(c1ccc3c(c1)OCO3)CC2=O (configuration not stated) | 73.2 |

Qu. For `COc1ccc(/C=C/c2ccc(N)cc2)cc1OC` , what is its reported viability at 24 h, 100 µM?
Ans. 53.7

Qu. For `Cc1ccc(C#Cc2ccc3c(c2)OCO3)cc1` , what is its reported viability at 24 h, 100 µM?
Ans. 51.9

Qu. For `CC(=O)Nc1cccc(/C=C/c2ccc3c(c2)OCO3)c1` , what is its reported viability at 24 h, 100 µM?
Ans. 20.9

Qu. For `Cc1cc(C)cc(/C=C/c2ccc(O)cc2)c1` , what is its reported viability at 24 h, 100 µM?
Ans. 7.31

Qu. For `CC(=O)c1ccc(/C=C/c2ccc(O)cc2)cc1` , what is its reported viability at 24 h, 100 µM?
Ans. 94.4

Qu. For `CC(=O)N(C)c1ccc(/C=C/c2ccc3c(c2)OCO3)cc1` , what is its reported viability at 24 h, 100 µM?
Ans. 50.4

Qu. For `COc1ccc(C#Cc2ccc(OC)c(OC)c2)cc1` , what is its reported viability at 24 h, 100 µM?
Ans. 94.1

From: ChEMBL document CHEMBL4138103
